Test system: HEPG2
Assay: Viability assay (CellTiter-Glo), HEPG2
Format: cell-based, human
Conditions: 120 μM, CellTiter-Glo
Each entry below carries its recorded Cell viability (%) HEPG2 120 μM.
Write the number in % without appending the unit.

Example compounds with recorded Cell viability (%) HEPG2 120 μM:
C[C@H]1N=C(c2ccccc2F)c2cc(Br)ccc2-n2cnc(-c3cnco3)c21; 100
CCc1noc(-c2ncn3c2[C@@H](C)N=C(c2ccccc2F)c2cc(Br)ccc2-3)n1; 56
CCNC(=O)c1ncn2c1[C@@H](C)N=C(c1ccccc1F)c1cc(C3CC3)ccc1-2; 83
CCNC(=O)c1ncn2c1[C@@H](C)N=C(c1ccccc1F)c1cc(Br)ccc1-2; 100
CC1N=C(c2ccccc2F)c2cc(C#C[Si](C)(C)C)ccc2-n2cnc(-c3cnco3)c21 (stereo not drawn) [GL-III-77]; 0

Input: Value wanted: Cell viability (%) HEPG2 120 μM (HEPG2) of entry `CCOC(=O)c1ncn2c1[C@@H](C)N=C(c1ccccn1)c1cc(Br)ccc1-2`
Output: 89

Input: Value wanted: Cell viability (%) HEPG2 120 μM (HEPG2) of entry C#Cc1ccc2c(c1)C(c1ccccc1F)=NC(C)C(=O)N2C (stereo not drawn) [GL-III-24]
Output: 91

Input: Value wanted: Cell viability (%) HEPG2 120 μM (HEPG2) of entry `C#Cc1ccc2c(c1)C(c1ccccc1F)=NCc1c(C(=O)OCCCO)ncn1-2`
Output: 100

Input: Value wanted: Cell viability (%) HEPG2 120 μM (HEPG2) of entry C#Cc1ccc2c(c1)C(c1ccccc1F)=NC(C)c1c(C(=S)N(C)C)ncn1-2 (stereo not drawn)
Output: 100
